- target-system: Mannose-6-phosphate isomerase (Homo sapiens) (UniProt P34949)
- Sequence (P34949 whole entry, looked up): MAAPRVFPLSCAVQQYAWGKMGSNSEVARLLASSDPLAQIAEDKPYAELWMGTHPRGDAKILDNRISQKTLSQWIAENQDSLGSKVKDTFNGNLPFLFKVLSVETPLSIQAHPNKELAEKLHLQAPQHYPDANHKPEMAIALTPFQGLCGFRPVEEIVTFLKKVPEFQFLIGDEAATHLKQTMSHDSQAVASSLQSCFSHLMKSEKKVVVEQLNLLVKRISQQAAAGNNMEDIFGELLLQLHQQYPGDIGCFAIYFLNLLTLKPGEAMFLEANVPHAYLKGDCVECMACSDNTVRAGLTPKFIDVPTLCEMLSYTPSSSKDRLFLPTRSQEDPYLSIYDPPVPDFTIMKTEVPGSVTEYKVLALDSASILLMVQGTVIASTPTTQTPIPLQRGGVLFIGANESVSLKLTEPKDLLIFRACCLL
- assay-overview: MPI inhibition at elevated mannose 6-phosphate – biochemical, fluorescence intensity, high mannose 6-phosphate, primary screen (AID 1220)
- condition-details: recombinant PMI enzyme, coupled fluorescence intensity; at 20 µM; hits give high values
The campaign covered roughly 190,000 compounds. About 1,300 (0.68%) were called active. The sample holds actives, similar compounds and a random draw of the others, so the mix is not that of the screen.
inhibition values, listed per item
result-type: inhibition

[
  {
    "molecule": "COC(=O)c1ccccc1NC(=O)CNc1cc(Cl)ccc1N1CCOCC1",
    "target-system": "Mannose-6-phosphate isomerase (Homo sapiens) (UniProt P34949)",
    "experimental-result": "9.8% (inactive)"
  },
  {
    "molecule": "O=C(COS(=O)c1ccccc1)Nc1cc(Cl)ccc1N1CCOCC1 (stereo unspecified)",
    "target-system": "Mannose-6-phosphate isomerase (Homo sapiens) (UniProt P34949)",
    "experimental-result": "8.4% (inactive)"
  },
  {
    "molecule": "Cc1cc(C(=O)Nc2sc3c(c2C#N)CCC(C)C3)cs1 (stereo unspecified)",
    "target-system": "Mannose-6-phosphate isomerase (Homo sapiens) (UniProt P34949)",
    "experimental-result": "-2.5% (inactive)"
  },
  {
    "molecule": "Cc1cnc(NC(=O)CC2CCCC2)s1",
    "target-system": "Mannose-6-phosphate isomerase (Homo sapiens) (UniProt P34949)",
    "experimental-result": "-13.1% (inactive)"
  },
  {
    "molecule": "Cc1ccc(C(=O)NNC(=O)c2cccc(S(=O)(=O)N3CCN(c4ccccc4)CC3)c2)cc1",
    "target-system": "Mannose-6-phosphate isomerase (Homo sapiens) (UniProt P34949)",
    "experimental-result": "5.6% (inactive)"
  },
  {
    "molecule": "CCNc1nc(NCC)n2c(SCC(=O)c3ccc(C(C)C)cc3)nnc2n1",
    "target-system": "Mannose-6-phosphate isomerase (Homo sapiens) (UniProt P34949)",
    "experimental-result": "-21% (inactive)"
  },
  {
    "molecule": "CC(=O)NC(c1ccc(Cl)cc1)c1c(O)ccc2ccc(O)cc12 (stereo unspecified)",
    "target-system": "Mannose-6-phosphate isomerase (Homo sapiens) (UniProt P34949)",
    "experimental-result": "69.9% (active)"
  },
  {
    "molecule": "O=C(NC(c1ccc(Cl)cc1)c1c(O)ccc2ccccc12)c1ccccc1 (stereo unspecified)",
    "target-system": "Mannose-6-phosphate isomerase (Homo sapiens) (UniProt P34949)",
    "experimental-result": "27.6% (inactive)"
  },
  {
    "molecule": "Cc1ccc(CC2CC(=O)N(c3ccncc3)C2=O)cc1 (stereo unspecified)",
    "target-system": "Mannose-6-phosphate isomerase (Homo sapiens) (UniProt P34949)",
    "experimental-result": "1.2% (inactive)"
  },
  {
    "molecule": "Cc1ccc(NC(=O)C2CCCN2C(=O)NC2CCCCC2)cc1 (stereo unspecified)",
    "target-system": "Mannose-6-phosphate isomerase (Homo sapiens) (UniProt P34949)",
    "experimental-result": "7.7% (inactive)"
  },
  {
    "molecule": "COc1ccc(/C=N/c2oc(C)c(C)c2C#N)c(OC)c1",
    "target-system": "Mannose-6-phosphate isomerase (Homo sapiens) (UniProt P34949)",
    "experimental-result": "51.5% (active)"
  }
]

----------
- target-system: Mannose-6-phosphate isomerase (Homo sapiens) (UniProt P34949)
- assay-overview: MPI inhibition at elevated mannose 6-phosphate – biochemical, fluorescence intensity, high mannose 6-phosphate, primary screen (AID 1220)
- condition-details: recombinant PMI enzyme, coupled fluorescence intensity; at 20 µM; hits give high values
Hit rate of the full screen: of about 190,000 compounds, about 1,300 (0.68%) were called active. What follows is part of a selection rich in actives, with near analogues and random picks from the rest.
Mark Condition met for reported inhibition of 10% or greater; mark Condition not met for anything smaller.

[
  {
    "compound": "COc1cc(-c2nc3ccccn3c2/N=C/c2ccccc2)ccc1O",
    "target-system": "Mannose-6-phosphate isomerase (Homo sapiens) (UniProt P34949)",
    "class-assignment": "Condition met"
  },
  {
    "compound": "CCC(C)(C(=O)NC1CCCCC1)N(C(=O)C1CCC(=O)N1)c1ccc(C)cc1 (stereo not drawn)",
    "target-system": "Mannose-6-phosphate isomerase (Homo sapiens) (UniProt P34949)",
    "class-assignment": "Condition not met"
  },
  {
    "compound": "COC(=O)c1ccccc1NC(=O)CSc1nc(-c2ccco2)cc(C(F)(F)F)n1",
    "target-system": "Mannose-6-phosphate isomerase (Homo sapiens) (UniProt P34949)",
    "class-assignment": "Condition met"
  },
  {
    "compound": "CC(C)(C)NCC(O)COc1ccccc1C(C)(C)C (stereo not drawn)",
    "target-system": "Mannose-6-phosphate isomerase (Homo sapiens) (UniProt P34949)",
    "class-assignment": "Condition not met"
  },
  {
    "compound": "O=S(=O)(Nc1c(S(=O)(=O)c2ccccc2)c2nc3ccccc3nc2n1C1CCCCC1)c1ccccc1",
    "target-system": "Mannose-6-phosphate isomerase (Homo sapiens) (UniProt P34949)",
    "class-assignment": "Condition met"
  },
  {
    "compound": "Cc1cccc2cc(-c3nc4c(C)cccn4c3NCc3ccco3)c(=O)[nH]c12",
    "target-system": "Mannose-6-phosphate isomerase (Homo sapiens) (UniProt P34949)",
    "class-assignment": "Condition not met"
  },
  {
    "compound": "CCOC(=O)N1CCN(C(=O)CSCc2ccc(Br)cc2)CC1",
    "target-system": "Mannose-6-phosphate isomerase (Homo sapiens) (UniProt P34949)",
    "class-assignment": "Condition not met"
  },
  {
    "compound": "COc1ccc(S(=O)(=O)Nc2cc3c4c(oc3c3ccccc23)CCCC4=O)cc1",
    "target-system": "Mannose-6-phosphate isomerase (Homo sapiens) (UniProt P34949)",
    "class-assignment": "Condition met"
  },
  {
    "compound": "CCC(=O)Nc1c(C#N)c2nc3ccccc3nc2n1C1CCCCC1",
    "target-system": "Mannose-6-phosphate isomerase (Homo sapiens) (UniProt P34949)",
    "class-assignment": "Condition met"
  },
  {
    "compound": "COc1ccccc1C(=O)Nc1nc(N)n(-c2ccccc2)n1",
    "target-system": "Mannose-6-phosphate isomerase (Homo sapiens) (UniProt P34949)",
    "class-assignment": "Condition not met"
  },
  {
    "compound": "COc1cc(-c2nc3ccccn3c2/N=C/c2cccc(OC)c2O)ccc1O",
    "target-system": "Mannose-6-phosphate isomerase (Homo sapiens) (UniProt P34949)",
    "class-assignment": "Condition met"
  },
  {
    "compound": "O=c1c2c(nc3nc(NCc4ccccc4Cl)[nH]n13)CCC2",
    "target-system": "Mannose-6-phosphate isomerase (Homo sapiens) (UniProt P34949)",
    "class-assignment": "Condition not met"
  },
  {
    "compound": "CCc1cc[n+](-c2nc3ccccc3nc2C(=C=[N-])C#N)cc1",
    "target-system": "Mannose-6-phosphate isomerase (Homo sapiens) (UniProt P34949)",
    "class-assignment": "Condition met"
  },
  {
    "compound": "COc1cc(-c2nc3ccccn3c2/N=C/c2cc(OC)c(O)cc2Cl)ccc1O",
    "target-system": "Mannose-6-phosphate isomerase (Homo sapiens) (UniProt P34949)",
    "class-assignment": "Condition met"
  },
  {
    "compound": "Cc1ccc(S(=O)(=O)c2c(N)n(CCCO)c3nc4ccccc4nc23)cc1",
    "target-system": "Mannose-6-phosphate isomerase (Homo sapiens) (UniProt P34949)",
    "class-assignment": "Condition not met"
  },
  {
    "compound": "Cc1ccc(C)c(S(=O)(=O)Nc2ccccc2C(=O)Nc2cc(C)on2)c1",
    "target-system": "Mannose-6-phosphate isomerase (Homo sapiens) (UniProt P34949)",
    "class-assignment": "Condition not met"
  },
  {
    "compound": "COc1ccccc1N=C(C)C1=C(O)CSC1=O",
    "target-system": "Mannose-6-phosphate isomerase (Homo sapiens) (UniProt P34949)",
    "class-assignment": "Condition met"
  },
  {
    "compound": "COc1ccc(CCNC(=O)CS(=O)(=O)c2cn(CC(=O)N3CCCC3)c3ccccc23)cc1OC",
    "target-system": "Mannose-6-phosphate isomerase (Homo sapiens) (UniProt P34949)",
    "class-assignment": "Condition met"
  },
  {
    "compound": "Cc1cc[n+](-c2nc3ccccc3nc2C(=C=[N-])C#N)cc1",
    "target-system": "Mannose-6-phosphate isomerase (Homo sapiens) (UniProt P34949)",
    "class-assignment": "Condition met"
  },
  {
    "compound": "COc1ccc(S(=O)(=O)Nc2cc3c4c(oc3c3ccccc23)CC(C)(C)CC4=O)cc1",
    "target-system": "Mannose-6-phosphate isomerase (Homo sapiens) (UniProt P34949)",
    "class-assignment": "Condition met"
  },
  {
    "compound": "O=C(Nc1ccc(Cl)cc1)N(Cc1nnc2n1CCCCC2)c1ccccc1",
    "target-system": "Mannose-6-phosphate isomerase (Homo sapiens) (UniProt P34949)",
    "class-assignment": "Condition not met"
  },
  {
    "compound": "CC(=O)C(=Nc1ccccc1Cl)NNc1ccc(Cl)cc1",
    "target-system": "Mannose-6-phosphate isomerase (Homo sapiens) (UniProt P34949)",
    "class-assignment": "Condition not met"
  },
  {
    "compound": "Fc1ccc(CNC(=S)NC2CCCCC2)cc1",
    "target-system": "Mannose-6-phosphate isomerase (Homo sapiens) (UniProt P34949)",
    "class-assignment": "Condition not met"
  },
  {
    "compound": "COc1ccc(CCNC(=O)CS(=O)(=O)c2cn(CC(=O)N3CCOCC3)c3ccccc23)cc1OC",
    "target-system": "Mannose-6-phosphate isomerase (Homo sapiens) (UniProt P34949)",
    "class-assignment": "Condition met"
  },
  {
    "compound": "CCCCn1c(NS(=O)(=O)c2ccccc2)c(S(=O)(=O)c2ccc(C)cc2)c2nc3ccccc3nc21",
    "target-system": "Mannose-6-phosphate isomerase (Homo sapiens) (UniProt P34949)",
    "class-assignment": "Condition met"
  },
  {
    "compound": "CC1CCN(C2(O)C(=O)Nc3ccc(Br)cc32)CC1 (stereo not drawn)",
    "target-system": "Mannose-6-phosphate isomerase (Homo sapiens) (UniProt P34949)",
    "class-assignment": "Condition not met"
  },
  {
    "compound": "Cc1nc2ccc(C(C(F)(F)F)(C(F)(F)F)C(F)(F)F)cc2[nH]1",
    "target-system": "Mannose-6-phosphate isomerase (Homo sapiens) (UniProt P34949)",
    "class-assignment": "Condition met"
  },
  {
    "compound": "Cc1ccc2[nH]c(=O)c(-c3nc4c(C)cccn4c3NCc3ccco3)cc2c1",
    "target-system": "Mannose-6-phosphate isomerase (Homo sapiens) (UniProt P34949)",
    "class-assignment": "Condition met"
  },
  {
    "compound": "CCOc1ccc(C(=O)NCC(=O)Nc2ccc(N3CCOCC3)cc2)cc1OCC",
    "target-system": "Mannose-6-phosphate isomerase (Homo sapiens) (UniProt P34949)",
    "class-assignment": "Condition not met"
  },
  {
    "compound": "COc1ccc(CNc2oc(Cc3cccc4ccccc34)nc2C#N)cc1",
    "target-system": "Mannose-6-phosphate isomerase (Homo sapiens) (UniProt P34949)",
    "class-assignment": "Condition not met"
  },
  {
    "compound": "O=C(CCl)Nc1cc(S(=O)(=O)N2CCCCCC2)ccc1Cl",
    "target-system": "Mannose-6-phosphate isomerase (Homo sapiens) (UniProt P34949)",
    "class-assignment": "Condition not met"
  },
  {
    "compound": "COc1ccccc1OCC(=O)Nn1c(=S)[nH]c2ncccc2c1=O",
    "target-system": "Mannose-6-phosphate isomerase (Homo sapiens) (UniProt P34949)",
    "class-assignment": "Condition not met"
  },
  {
    "compound": "O=c1[nH]c2cc3c(cc2cc1CN(CC1CCCO1)S(=O)(=O)c1ccccc1)OCCO3 (stereo not drawn)",
    "target-system": "Mannose-6-phosphate isomerase (Homo sapiens) (UniProt P34949)",
    "class-assignment": "Condition not met"
  },
  {
    "compound": "Oc1ccc(CCC2CCCCN2Cc2nc(C3CC3)no2)cc1 (stereo not drawn)",
    "target-system": "Mannose-6-phosphate isomerase (Homo sapiens) (UniProt P34949)",
    "class-assignment": "Condition not met"
  },
  {
    "compound": "O=c1c2c(nc3nc(NCc4cccc5ccccc45)[nH]n13)CCC2",
    "target-system": "Mannose-6-phosphate isomerase (Homo sapiens) (UniProt P34949)",
    "class-assignment": "Condition met"
  },
  {
    "compound": "C=CCn1c(COc2ccccc2F)nnc1SCCN1C(=O)c2ccccc2C1=O",
    "target-system": "Mannose-6-phosphate isomerase (Homo sapiens) (UniProt P34949)",
    "class-assignment": "Condition met"
  },
  {
    "compound": "Nc1c(S(=O)(=O)c2ccccc2)c2nc3ccccc3nc2n1C1CC1",
    "target-system": "Mannose-6-phosphate isomerase (Homo sapiens) (UniProt P34949)",
    "class-assignment": "Condition not met"
  },
  {
    "compound": "N#CC(=C=[N-])c1nc2ccccc2nc1-[n+]1ccccc1",
    "target-system": "Mannose-6-phosphate isomerase (Homo sapiens) (UniProt P34949)",
    "class-assignment": "Condition not met"
  },
  {
    "compound": "CCc1ccc(C(=O)NN(C(=O)c2ccc(CC)cc2)C(C)(C)C)cc1",
    "target-system": "Mannose-6-phosphate isomerase (Homo sapiens) (UniProt P34949)",
    "class-assignment": "Condition met"
  },
  {
    "compound": "Cc1nc2cc3nc(C(F)(F)F)[nH]c3cc2[nH]1",
    "target-system": "Mannose-6-phosphate isomerase (Homo sapiens) (UniProt P34949)",
    "class-assignment": "Condition met"
  },
  {
    "compound": "O=C(CNCc1ccccn1)Nc1cc(S(=O)(=O)N2CCCCC2)ccc1Cl",
    "target-system": "Mannose-6-phosphate isomerase (Homo sapiens) (UniProt P34949)",
    "class-assignment": "Condition met"
  },
  {
    "compound": "Cc1csc2cc(-c3cccc([N+](=O)[O-])c3)c(-c3cccc([N+](=O)[O-])c3)c[n+]12",
    "target-system": "Mannose-6-phosphate isomerase (Homo sapiens) (UniProt P34949)",
    "class-assignment": "Condition not met"
  }
]

Reference source: PubChem BioAssay AID1220
